B1: C22orf31 (parent)
chain: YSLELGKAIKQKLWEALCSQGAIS

# Variants of: B1
# PROTOCOL: protein stability index of a GFP-peptide fusion (GPS, HEK-293T) (PSI 1-6); higher = more stable;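 also: lentivirally expressed fusions sorted by FACS into six bins by GFP to DsRed ratio, PSI derived from sequencing read proportions per bin multiplied by bin number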
# CONDITION_SET: c terminus: a fixed tail appended
Decide using protein stability index: a value greater than or equal to 2 is Yes, a smaller one is No.

- SEQUENCE_CODE: "YSLELGKAIKQKLWEAKCSQGAIS"
  CAT: "Yes"
- SEQUENCE_CODE: "YSLELGKAIKQKLWEAWCSQGAIS"
  CAT: "No"
- SEQUENCE_CODE: "YSLELGKAIKQKLWEALVSQGAIS"
  CAT: "Yes"
- SEQUENCE_CODE: "YSLELGKAIKQKDWEALCSQGAIS"
  CAT: "Yes"
- SEQUENCE_CODE: "YSLELGKAIKQYLWEALCSQGAIS"
  CAT: "No"
- SEQUENCE_CODE: "YSLELGKAIAQKLWEALCSQGAIS"
  CAT: "No"
- SEQUENCE_CODE: "YSLELGKAIKQKLWEALCSQGAIY"
  CAT: "Yes"
- SEQUENCE_CODE: "YSLELGKAIKQKLAEALCSQGAIS"
  CAT: "No"
- SEQUENCE_CODE: "YSLELGKAIKQKLWEALCSQGAPS"
  CAT: "No"
- SEQUENCE_CODE: "YSVELGKAIKQKLWEALCSQGAIS"
  CAT: "Yes"
- SEQUENCE_CODE: "YSLELGKADKQKLWEALCSQGAIS"
  CAT: "Yes"
- SEQUENCE_CODE: "YSLELGKAIKQKKWEALCSQGAIS"
  CAT: "No"
- SEQUENCE_CODE: "YSLKLGKAIKQKLWEALCSQGAIS"
  CAT: "Yes"
- SEQUENCE_CODE: "YSLELGEAIKQKLWEALCSQGAIS"
  CAT: "Yes"
- SEQUENCE_CODE: "YVLELGKAIKQKLWEALCSQGAIS"
  CAT: "No"
- SEQUENCE_CODE: "YSLQLGKAIKQKLWEALCSQGAIS"
  CAT: "Yes"
- SEQUENCE_CODE: "YSLELGKAIKQKLWEANCSQGAIS"
  CAT: "No"
- SEQUENCE_CODE: "YSYELGKAIKQKLWEALCSQGAIS"
  CAT: "Yes"
- SEQUENCE_CODE: "YSLELGKAIKYKLWEALCSQGAIS"
  CAT: "No"
- SEQUENCE_CODE: "YSLELGKAIKQKLWEALGSQGAIS"
  CAT: "No"
- SEQUENCE_CODE: "YSLELGKAIKQKLWEMLCSQGAIS"
  CAT: "Yes"
- SEQUENCE_CODE: "YSLELGKAIKQKLWEALCSQGSIS"
  CAT: "Yes"
- SEQUENCE_CODE: "YSLELGKAIKQKLWEALCSVGAIS"
  CAT: "Yes"
- SEQUENCE_CODE: "YSLELGKAIKQKLWEALCSRGAIS"
  CAT: "Yes"
- SEQUENCE_CODE: "YSLELGKAIKQKLWEALISQGAIS"
  CAT: "Yes"
- SEQUENCE_CODE: "YSLELKKAIKQKLWEALCSQGAIS"
  CAT: "No"
- SEQUENCE_CODE: "NSLELGKAIKQKLWEALCSQGAIS"
  CAT: "Yes"
- SEQUENCE_CODE: "YSFELGKAIKQKLWEALCSQGAIS"
  CAT: "Yes"
- SEQUENCE_CODE: "YSLELRKAIKQKLWEALCSQGAIS"
  CAT: "Yes"
- SEQUENCE_CODE: "YSLELGKAIPQKLWEALCSQGAIS"
  CAT: "Yes"
